Origin of values: patent US7238694B2

Tested on: Staphylococcus aureus ATCC29213 rpoB^H418Y
Experiment: microbe, parasite or virus in culture
Assay type: cell-based
Settings: Staphylococcus aureus, ATCC29213; rifR strain; Cation-Adjusted Mueller-Hinton Broth, 37° C.; read-out: MIC
readoutLabel: MIC

Req: Recorded MIC of CO[C@H]1/C=C/O[C@@]2(C)Oc3c(C)c(O)c4c(O)c(c(/C=N/N5CCN(C6CCN(c7nc8c(cc7F)c(=O)c(C(=O)O)cn8-c7ccc(F)cc7F)C6)CC5)c(O)c4c3C2=O)NC(=O)/C(C)=C\C=C\[C@H](C)[C@H](O)[C@@H](C)[C@@H](O)[C@@H](C)[C@H](OC(C)=O)[C@@H]1C (mixture of isomers) [Example 34] , please.
Resp: 0.06 to 16 µg/mL

Req: Which MIC is listed for COc1c(N2CCN(C3CCN(/N=C/c4c5c(O)c6c(O)c(C)c7c(c6c4O)C(=O)[C@@](C)(O/C=C/[C@H](OC)[C@@H](C)[C@@H](OC(C)=O)[C@H](C)[C@H](O)[C@H](C)[C@@H](O)[C@@H](C)/C=C/C=C(/C)C(=O)N5)O7)C3)CC2)c(F)cc2c(=O)c(C(=O)O)cn(C3CC3)c12 (mixture of isomers) [Example 28] ?
Resp: 0.06 to 16 µg/mL

Req: Need MIC of CO[C@H]1/C=C/O[C@@]2(C)Oc3c(C)c(O)c4c(O)c(c(/C=N/N5CCN(c6c(F)cc7c(=O)c(C(=O)O)cn(C8CC8)c7c6Cl)CC5)c(O)c4c3C2=O)NC(=O)/C(C)=C\C=C\[C@H](C)[C@H](O)[C@@H](C)[C@@H](O)[C@@H](C)[C@H](OC(C)=O)[C@@H]1C [Example 40] , thanks.
Resp: 0.06 to 16 µg/mL
